# SUBJECT OF TEST: OsWRKY34 (Oryza sativa, UniProt Q0JBA9 1-250)
# Sequence (Q0JBA9 entry or part of it): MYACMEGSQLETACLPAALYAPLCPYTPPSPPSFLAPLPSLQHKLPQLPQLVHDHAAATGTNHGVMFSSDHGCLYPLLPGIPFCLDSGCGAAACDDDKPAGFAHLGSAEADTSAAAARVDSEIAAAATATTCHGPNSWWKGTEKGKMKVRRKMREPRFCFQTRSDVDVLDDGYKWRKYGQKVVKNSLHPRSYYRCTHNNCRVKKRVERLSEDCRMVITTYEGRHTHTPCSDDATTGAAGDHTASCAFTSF
# TEST DESCRIPTION: protein-binding microarray (RPBM); PBS, 2% BSA, 51.3 ng/ul salmon testes DNA, 50 uM zinc acetate, 200 nM TF, 25 C, 1 h; high values mean tight binding
# CONDITIONS USED: protein: recombinant; tags: N-terminal polyhistidine and DsRed monomer fusion (pET32a); label: CyDye5-dUTP incorporated in the synthesized complementary strand; 3' TTTTT single-stranded linker to array surface; dsDNA, one strand shown
Over roughly 68,000 sequences, “fluorescence intensity (a.u.)” has its median near 9,100; the highest 2% begin near 16,000. The sample holds the highest values, similar sequences and a random draw of the others, so the mix is not that of the screen.
PROPERTY LABEL: binding signal

AAGGACCCAGCTGTTCGCCACGTGTGCGTGTTGACTTCCACGGAGTCACCTAGTGCAG : 9780 fluorescence intensity (a.u.)
TCAGTCGCTTCCTCTCTTTATTATCACAGATTCACAGTCCCGGAGTCACCTAGTGCAG : 8370 fluorescence intensity (a.u.)
ATGGCATTGAGCATTACAGTTGAATTTGTGTAGTTTTTAGCGGAGTCACCTAGTGCAG : 8390 fluorescence intensity (a.u.)
AGGGGTGCTAATTGAGCCTATTTCGGGTGGGGCTCACTGACGGAGTCACCTAGTGCAG : 15300 fluorescence intensity (a.u.)

Retrieve binding signal on OsWRKY34 (Oryza sativa, UniProt Q0JBA9 1-250); query TCTGCTTCACTGTATTTTTGTCCAACAATTCCATGACATGCGGAGTCACCTAGTGCAG
8550 fluorescence intensity (a.u.)
